Assay: Potentiation of amphotericin-induced cytotoxicity against human DU-145 cells over expressing CYP1B1 assessed as reversal of CYP1B1 mediated drug resistance at 1 uM after 48 hrs by MTT assay (Rvb = 43.25 +/- 1.7 nM)
measurement-name: pIC50
Please report pIC50 as the negative decimal logarithm of the molar concentration, giving only the number.

Query block: Specify reported pIC50 for the compound shown: COc1ccc(OC)c2c1c(OC)cc1c(=O)cc(-c3ccc(-c4cn(CCCCCOc5cccc6c5C(=O)N(C5CCC(=O)NC5=O)C6=O)nn4)cc3)oc12 (stereo unspecified)
Result block: 7.55
